tested on: A549; test: Cytotoxicity against human A549 cells after 48 hrs by MTT assay; type: functional, cell-based; conditions: A549, 48 h

- Structure as smiles: "COc1cc2c(cc1OC)CN(S(=O)(=O)c1ccc(-n3cc(COc4ccc(C)cc4)nn3)cc1)CC2"
  IC50: "> 50 µg/mL"
- Structure as smiles: "COc1cc2c(cc1OC)CN(S(=O)(=O)c1ccc(-n3cc(COc4ccccc4)nn3)cc1)CC2"
  IC50: "> 50 µg/mL"
- Structure as smiles: "CC(=O)c1ccccc1OCc1cn(-c2ccc(S(=O)(=O)N3CCc4ccccc4C3)cc2)nn1"
  IC50: "14.9 µM"
- Structure as smiles: "COC(=O)c1ccccc1OCc1cn(-c2ccc(S(=O)(=O)N3CCc4cc(OC)c(OC)cc4C3)cc2)nn1"
  IC50: "8.43 µM"
